Below, each entry is listed alongside its reported TGI.
test system: SR leukemia; test: NCI tumour cell line growth inhibition, 48 h

Completed entries (count: 3):
O=P(NC12CC3CC(CC(C3)C1)C2)(N1CC1)N1CC1: > 91.4 µM
CC[C@H](Nc1nc(N)nc(C)c1C#N)c1nc2cccc(NCc3ccc(C(=O)NO)cc3)c2c(=O)n1-c1ccccc1: > 100 µM
Nc1ccc(N=Nc2ccc(-c3ccc(O)cc3)cc2)c2ccc(S(=O)(=O)O)cc12: > 100 µM

Value wanted: TGI (SR leukemia) of entry O=C(CSC(c1ccccc1)c1ccccc1)N/N=C/c1cccc(Cl)c1
38.3 µM

# value lookup — system SR leukemia, readout TGI, item COC(=O)c1ccc(NC(=O)Nc2ccc3oc(=O)c4ccccc4c3c2)cc1
> 100 µM

Return TGI measured with SR leukemia given this compound: O=C(Nc1ccc(CN2CCOCC2)cc1)c1[nH]ncc1Nc1ncnc2sccc12
0.989 µM

Hi! What's the reported TGI for COc1ccc2c(c1)C(=O)c1c-2c(Nc2ccc(C(C)=O)cc2)nc2ccccc12 on SR leukemia?
> 100 µM

Given the entry CC(=O)OC[C@@H]1[C@H]2CC[C@]3(C)[C@@H](OC(C)=O)CC[C@H]3[C@@H]2CC[C@H]1C1(C)SCCS1 , what TGI was observed with SR leukemia?
> 25 µM

Reported TGI for SR leukemia, given N=c1nc2n(cc1F)[C@@H]1O[C@H](CO)[C@@H](O)[C@@H]1O2 ?
> 73.7 µM

###

tested on: HCT-116 colon; assay: NCI tumour cell line growth inhibition, 48 h; in the data active = GI50 below about 0.43 µM; inactive = the rest
Log the outcome using a class from active, inactive

Here are 4 compounds together with their reported answers.
C/C(=N\N=C(\[Se])N1CCN(c2ccccn2)CC1)c1ccccn1: active
C/C(=C\C1=C(Cl)C(=O)c2ccccc2C1=O)C(=O)O: inactive
CN1CCN(Cc2ccc(NC(=O)c3cncc(C#Cc4cncc5ncccc45)c3)cc2C(F)(F)F)CC1: inactive
COc1ccc2nc3cc(Cl)ccc3c(N3CCN(c4ccnc(N5CCOCC5)n4)CC3)c2c1: inactive

Query compound follows.
How did this test come out for O=C(CN1CCN(c2ccc(Cl)cc2)CC1)N1CCN(c2nnc(-c3ccc(Cl)cc3)c(-c3ccc(Cl)cc3)n2)CC1 ?
inactive

###

Listed next: entries and their corresponding TGI.
test system: UACC-257 melanoma; assay: NCI tumour cell line growth inhibition, 48 h
Reply numerically in µM, unit not repeated.

O=C(Nc1ccc(Cl)cc1F)c1cc(I)ccc1O: 6.64
CC/C=C\C/C=C\C[C@H](O)C/C=C1/C(=O)C=C[C@@H]1C/C=C\CCCC(=O)O: 19.2
O=C(c1cc2ccccc2o1)N(Cc1ccccc1)c1ccccc1: 41.4

In the following, a different molecule is considered.
Sample C=CCCCC1SC2=C(CC)CCCN2C1=O (stereo unspecified) — what was its TGI?
63.1

###

system: HS 578T breast; assay: NCI tumour cell line growth inhibition, 48 h
Property: GI50; scope: individual molecules

O=C(c1ccco1)c1nc2cc(F)ccc2[n+]([O-])c1C(F)(F)F: 97.4 µM
Cc1cccc(C(=O)/C=C/SC(=NC#N)SCc2ccccc2)c1: 27.9 µM

Here is the next item to consider.
For the molecule CO/N=C(\C)c1cccc(Nc2cc(-c3ccccc3)nc3c(O)cccc23)c1 , what GI50 is on record?
5.31 µM
